All values here come from PubChem BioAssay (NCI).

# GI50 measurements, system: SK-MEL-2 melanoma

The following compounds have reported results that may help.
• CCN(CC)CCN1C(=O)C2C3C(=O)CC(C)(CC3C)C2C1=O (stereo unspecified) = > 100 µM
• O=C(Nc1ccccc1C(F)(F)F)c1ccc(NC2=C(Cl)C(=O)N(Cc3ccccc3)C2=O)cc1 = 40.6 µM
• O=C(Nc1ccc(-n2ccc3c(NC(=O)c4ccccc4)nccc32)cc1)Nc1cccc(C(F)(F)F)c1 = 15 µM
• Cc1ccc(/C=C/c2c(C(=O)/C=C/c3ccc(Cl)cc3)c(C)nc3ccccc23)cc1 = 2.01 µM
• CC(=O)[CH-]C(=O)c1ccccc1.CC(=O)[CH-]C(=O)c1ccccc1.CC(C)CCC[C@H](C)C1CCC2[C@@H]3CC=C4C[C@@H]([O-])CC[C@]4(C)C3CC[C@@]21C.CC(C)CCC[C@H](C)C1CCC2[C@@H]3CC=C4C[C@@H]([O-])CC[C@]4(C)C3CC[C@@]21C.Cl.[Ti+4] (stereo partly specified) = > 25 µM

Exercise: Input O=C1c2cccnc2C(=O)c2c1c(C(=O)NCCn1ccnc1)c1ccccn21 , output reported GI50.
Key: 2.82 µM

###

- System: NCI-H522 lung
- procedure_summary: NCI tumour cell line growth inhibition, 48 h; in the data active means GI50 below about 0.43 µM; inactive means the rest
Tick one outcome: true (active), false (inactive)

Reference set (4 entries):
• Cc1ccc(/C=C/c2c(C(=O)/C=C/c3ccc(Cl)cc3)c(C)nc3ccccc23)cc1 = false
• O=C(COc1ccc(OCC(=O)N2C(=O)CN(c3ccccc3)C2=S)cc1)N1C(=O)CN(c2ccccc2)C1=S = false
• COc1ccc(Cl)cc1Nc1nc(C(F)(F)F)ccc1C(=O)N/N=C/c1cccnc1 = false
• Clc1ccc(Nc2nc(Nc3ccccc3)nc(Nc3ccc(-c4cc(-c5ccc(Cl)cc5)on4)cc3)n2)cc1 = false

Exercise: Could you check what this test reported for CN1CCN(c2ccc(NC(=O)c3cncnc3Nc3ccc(OCc4cccc(F)c4)c(Cl)c3)cc2)CC1 ?
Key: false

Exercise: // param item: O=c1c2ccccc2nc(-c2ccccc2Cl)n1-c1nnc(C(F)(F)F)s1 ; yields the recorded call
Key: false

Exercise: Please indicate how the test categorized C=C1C(=O)O[C@H]2[C@H]1CC/C(Cn1cc(-c3cccc(Cl)c3)nn1)=C\CC[C@@]1(C)O[C@@H]21 .
Key: true

Exercise: Hi, do you know how Cc1c(-c2ccc(O)cc2)oc(=O)c2ccc(O)cc12 came out in this test?
Key: false

Exercise: Look up the recorded call for CCCCCC[C@@H](C)Nc1nc2ccccc2c2occc12 in this test.
Key: false

Exercise: What was the test verdict on CCOc1ccc2c(c1)CN(Cc1ccc(Cl)cc1)CO2 ?
Key: false

Exercise: State the result this test recorded for Cc1ccc(Cl)cc1NC(=O)c1cc2ccccc2cc1O .
Key: true

Exercise: Write down the call the test reported for this compound. Item: CCOC(=O)/C(C#N)=C1\SS/C(=C(/C#N)C(=O)OCC)S1
Key: false

Exercise: What was the test verdict on COc1ccc2nc(-c3ccccc3)cc(Nc3cccc(C(C)=O)c3)c2c1 ?
Key: false

###

- System: A498 renal
- procedure_summary: NCI tumour cell line growth inhibition, 48 h
GI50 for assorted compounds

A selection of reference data follows.
* NC(=O)CC1(O)C=C(Br)C(=O)C(Br)=C1 | 15.8 µM
* Cc1c(-c2ccc(O)cc2)oc(=O)c2ccc(O)cc12 | 42.8 µM
* C/C(=N/O)c1ccc2c(c1)/C(=N/O)c1ccccc1-2 | 34.9 µM
* Cc1ccc(-c2nc(N3CCNCC3)c3oc(-c4ccccc4)nc3n2)cc1 | 14.5 µM
* O=c1c2ccccc2nc(-c2ccccc2Cl)n1-c1nnc(C(F)(F)F)s1 | 1.77 µM
* COc1ccc(C(=O)O[C@H]2[C@H](O[C@H]3[C@@H](O)COC(O[C@H]4C[C@H]5[C@@H]6CC=C7C[C@@H](O)CC[C@]7(C)[C@H]6CC[C@]5(C)[C@H]4[C@H](C)C(=O)CCC(C)C)[C@@H]3OC(C)=O)OC[C@@H](O)[C@@H]2O)c(C)c1 (stereo partly specified) | < 0.01 µM
* Nc1nnnc2nc[nH]c12 | 1.87 µM
* CCCCN=C(N)c1ccc(N2CCCN(c3ccc(C(N)=NCCCC)cc3)CC2)cc1 | 0.529 µM
* NC(Cc1c[nH]c2ccc(F)cc12)C(=O)O (stereo unspecified) | 580 µM
* C[C@@H](NC(=O)c1ncnc(N)c1Cl)c1ncc(C(=O)Nc2cc(C(F)(F)F)c(Cl)cn2)s1 | 7.94 µM

From here, focus on the item given below.
Exercise: Check the records and state GI50 for C=C1C(=O)O[C@H]2[C@H]1CC/C(Cn1cc(-c3cccc(Cl)c3)nn1)=C\CC[C@@]1(C)O[C@@H]21
Key: 1.52 µM

###

- System: HCT-116 colon
- procedure_summary: NCI tumour cell line growth inhibition, 48 h; in the data active means GI50 below about 0.43 µM; inactive means the rest
Outcomes you can answer with include only these: active, inactive

* C/C(=N/O)c1ccc2c(c1)/C(=N/O)c1ccccc1-2 | inactive
* CCOC(=O)/C(C#N)=C1\SS/C(=C(/C#N)C(=O)OCC)S1 | inactive

Exercise: Please share the test call associated with CN1CCN(c2ccc(NC(=O)c3cncnc3Nc3ccc(OCc4cccc(F)c4)c(Cl)c3)cc2)CC1 .
Key: inactive

Exercise: Any idea what this test logged for O=C(Nc1ccc(-n2ccc3c(NC(=O)c4ccccc4)nccc32)cc1)Nc1cccc(C(F)(F)F)c1 ?
Key: inactive

Exercise: What classification did COc1ccc(C(=O)O[C@H]2[C@H](O[C@H]3[C@@H](O)COC(O[C@H]4C[C@H]5[C@@H]6CC=C7C[C@@H](O)CC[C@]7(C)[C@H]6CC[C@]5(C)[C@H]4[C@H](C)C(=O)CCC(C)C)[C@@H]3OC(C)=O)OC[C@@H](O)[C@@H]2O)c(C)c1 (stereo partly drawn) end up with in this test?
Key: active

Exercise: What call does the record list for C[C@@H](NC(=O)c1ncnc(N)c1Cl)c1ncc(C(=O)Nc2cc(C(F)(F)F)c(Cl)cn2)s1 ?
Key: inactive

Exercise: Each compound tested received a call. Report the one for Nc1nnnc2nc[nH]c12 .
Key: inactive

Exercise: Just curious, what result did CCN(CC)c1ccc2nc3c4ccccc4c(=O)cc-3n(-c3ccccc3)c2c1 get here?
Key: inactive

###

- Test system: HS 578T breast
- procedure_summary: NCI tumour cell line growth inhibition, 48 h; in the data active = GI50 below about 0.43 µM; inactive = the rest
Entry note: the call must match one of active, inactive

• O=C(Cc1csc2nc(-c3ccc(Cl)cc3)cn12)N/N=C/c1ccccc1O = inactive
• C[C@@H](NC(=O)c1ncnc(N)c1Cl)c1ncc(C(=O)Nc2cc(C(F)(F)F)c(Cl)cn2)s1 = inactive
• CCOC(=O)/C(C#N)=C1\SS/C(=C(/C#N)C(=O)OCC)S1 = inactive
• COc1ccccc1/C=C/C1=C(C)CCC(c2ccccc2OC)C1C (stereo unspecified) = active
• CC1C(=O)c2cc3c(cc2CCN(C)Cc2c1ccc1c2OCO1)OCO3 (stereo unspecified) = inactive

Shifting focus to the compound that follows.
Exercise: Record request — test call for COc1ccc(-c2[nH]nc(N)c2-c2cc(OC)c3c(c2)OCO3)cc1
Key: inactive

###

- Test system: KM12 colon
- procedure_summary: NCI tumour cell line growth inhibition, 48 h
observation_type: TGI

Observe how each entry below is paired with its result.
• NC(=O)c1nnsc1NN=O = > 100 µM
• O=C1C=CC(=Nc2cccc3c(N=C4C=CC(=O)O4)cccc23)O1 = > 100 µM
• COC1OC(CBr)C(OC(=O)c2ccccc2)C(OS(=O)(=O)c2ccc(C)cc2)C1Br (stereo not given) = > 100 µM

Exercise: Consider the compound COc1cccc2nc3ccccc3nc12 tested on KM12 colon; state its TGI.
Key: > 100 µM

Exercise: Report the value of TGI obtained on KM12 colon for Nc1ncnc2c1ncn2-c1ccc([N+](=O)[O-])cn1 .
Key: > 100 µM

Exercise: // fetch TGI; item: CCCCCCCCCC(CCCC(O)CC(=O)O)OC1OC(COC2OC(C)C(OC(C)=O)C(O)C2O)C(O)C(O)C1OC1OC(CO)C(O)C(O)C1OC1OC(C)C(OC(=O)CC(C)C)C(O)C1O (stereo not given) ; system: KM12 colon
Key: > 35 µM

Exercise: State TGI (KM12 colon) of CC1(C(=O)O)C[C@](C)(C(=O)OCc2ccccc2)C[C@](C)(C(=O)OCc2ccccc2)C1 (stereo not given in full) .
Key: 99.5 µM

Exercise: Tell me TGI of Oc1cnc2c(O)cccc2c1 when tested on KM12 colon.
Key: > 100 µM

Exercise: Provide the reported TGI (system: KM12 colon) for CCOC(=O)c1c(NC(=O)c2ccccc2)sc2c3c(ccc12)OCN(C)C3
Key: 3.3 µM

Exercise: Provide TGI, tested on KM12 colon, for O=C(Cc1csc2nc(-c3ccc(Cl)cc3)cn12)N/N=C/c1ccccc1O .
Key: > 100 µM
